B1: C19orf51 (parent)
chain: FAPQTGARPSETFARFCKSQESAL

Variants of: B1
Assay: protein stability index of a GFP-peptide fusion (GPS, HEK-293T) (PSI 1-6); higher = more stable;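 note: lentivirally expressed fusions sorted by FACS into six bins by GFP to DsRed ratio, PSI derived from sequencing read proportions per bin multiplied by bin number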
Conditions: c terminus: a fixed tail appended
What protein stability index was measured for each of the following?

Kindly note the recorded protein stability index for K18D , which is 1.1

Please fill in: protein stability index reported for Q4D = 2

Looking up F1Q , I see its protein stability index listed as 3.77

Lab note: E11S gave protein stability index of 3.19

S22Y has a reported protein stability index of 1.93

Record summary for E11R : reported protein stability index = 2.15

Entry P9G — recorded protein stability index = 2.57

Recorded protein stability index (variant S10L ): 1.58

Just so you know, measured protein stability index for G6D came out at 2.04

The reported protein stability index of the variant A7H was 3.46

Measured protein stability index, K18G : 2.56

The variant listed as P3W has a reported protein stability index of 2.66

Measured protein stability index of S10H : 2.76

For this variant ( T12P ), measured protein stability index is 1.82

Lab note: measured protein stability index of E21K was 1.85

Looking up A14C , I found its protein stability index recorded as 1.69

Memo: R8L , reported protein stability index: 3.45

Reported protein stability index of T12G : 1.46

Value of measured protein stability index for the entry T5A : 2.07

Measured protein stability index, P9H : 2.82

For reference, reported protein stability index for Q20F stands at 1.73

response.value for E11D (field: protein stability index) = 1.85

Form field protein stability index, entry K18L : 2.2

According to the records, this variant E21W displays protein stability index of 3.29

Reported protein stability index ( S10N ) = 1.72

Consider S22L . Its measured protein stability index is 2.08

Looking up F13Q , I found its protein stability index recorded as 2.12

Noted for R15F : its protein stability index reads 1.72

Data point: S22I ; protein stability index = 3.24

get_value(item= K18T , readout=protein stability index) returns 2.6

The measured protein stability index associated with R15S reads 1.08

For this variant ( R8W ), measured protein stability index is 2.52

Documented protein stability index of A2N : 1.04

Given item Q4R , the value recorded as its protein stability index is 1.94

Please fill in: protein stability index reported for E21Y = 2.22

Lookup result for F13L ; measured protein stability index: 2.54

Notebook: K18I , protein stability index read as 2.29

Query A23M yields protein stability index of 2.11

Summary for this variant, Q20R : protein stability index is 4.59

The variant identified as R15H registered its protein stability index at 1.69

Sure, the documented protein stability index for F13D is 1.86

Lab note: A23L gave protein stability index of 2.84

Given item S10A , the value recorded as its protein stability index is 2.32

// P9Q : protein stability index value = 2.77

protein stability index for P3Q is 2.72

For record T12H the listed protein stability index is 1.87

Numbers sourced from the supplement of paper PMC10567573.
